target_or_system: human recombinant kappa opioid receptors (Homo sapiens)
Sequence (P41145 whole entry): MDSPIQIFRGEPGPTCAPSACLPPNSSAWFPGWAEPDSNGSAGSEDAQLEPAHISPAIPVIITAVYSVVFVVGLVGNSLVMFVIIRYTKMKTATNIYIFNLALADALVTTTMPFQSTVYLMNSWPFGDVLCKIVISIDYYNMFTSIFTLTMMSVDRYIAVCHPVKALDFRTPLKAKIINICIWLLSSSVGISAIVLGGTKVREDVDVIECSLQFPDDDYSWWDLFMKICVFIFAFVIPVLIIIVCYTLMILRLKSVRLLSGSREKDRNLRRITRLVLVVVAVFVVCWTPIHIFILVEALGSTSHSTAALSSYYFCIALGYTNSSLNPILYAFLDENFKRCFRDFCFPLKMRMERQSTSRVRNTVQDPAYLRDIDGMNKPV
experiment_description: Radioligand binding assay, kappa opioid receptor
readout_kind: pKi
Scale for pKi: -log10 of concentration given in mol/L; no unit attached.

[in] Answer with the recorded pKi for the molecule listed here: C[N@@+]1(CC2CC2)CC[C@]23c4c5ccc(O)c4OC2C(=O)CCC3(O)C1C5 (stereo partly shown)
[out] 5.75

---

target_or_system: μ-opioid receptors in the guinea pig ileum (Cavia porcellus, UniProt A0ACM8Q262)
Sequence (A0ACM8Q262 1-400): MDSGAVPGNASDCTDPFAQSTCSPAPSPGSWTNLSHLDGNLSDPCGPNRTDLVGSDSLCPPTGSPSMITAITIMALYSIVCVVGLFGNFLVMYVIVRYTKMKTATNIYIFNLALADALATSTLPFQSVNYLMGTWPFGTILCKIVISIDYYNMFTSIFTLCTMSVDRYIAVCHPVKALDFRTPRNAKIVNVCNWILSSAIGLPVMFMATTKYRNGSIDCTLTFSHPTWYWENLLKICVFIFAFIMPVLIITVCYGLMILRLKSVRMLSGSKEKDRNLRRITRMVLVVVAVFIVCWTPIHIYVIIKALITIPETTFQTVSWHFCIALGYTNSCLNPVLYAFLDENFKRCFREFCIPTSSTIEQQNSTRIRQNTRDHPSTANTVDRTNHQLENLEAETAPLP
experiment_description: Guinea pig ileum bioassay, test for agonist activity (inhibition of electrically evoked twitch contractions)
condition: guinea pig ileum; linear regression of concentration-response curve
readout_kind: EC50 (µM)
Just the number please, in µM, no unit attached.

[in] Answer with the recorded EC50 for the molecule listed here: C[N@@+]1(CC2CC2)CC[C@]23c4c5ccc(O)c4OC2C(=O)CCC3(O)C1C5 (stereo partly shown) [S-MNTX]
[out] 2

All values here come from patent US7563899B2.
